MEASUREMENT TARGET: DNA topoisomerase 2-alpha (Homo sapiens, UniProt P11388)
Sequence (P11388 whole entry): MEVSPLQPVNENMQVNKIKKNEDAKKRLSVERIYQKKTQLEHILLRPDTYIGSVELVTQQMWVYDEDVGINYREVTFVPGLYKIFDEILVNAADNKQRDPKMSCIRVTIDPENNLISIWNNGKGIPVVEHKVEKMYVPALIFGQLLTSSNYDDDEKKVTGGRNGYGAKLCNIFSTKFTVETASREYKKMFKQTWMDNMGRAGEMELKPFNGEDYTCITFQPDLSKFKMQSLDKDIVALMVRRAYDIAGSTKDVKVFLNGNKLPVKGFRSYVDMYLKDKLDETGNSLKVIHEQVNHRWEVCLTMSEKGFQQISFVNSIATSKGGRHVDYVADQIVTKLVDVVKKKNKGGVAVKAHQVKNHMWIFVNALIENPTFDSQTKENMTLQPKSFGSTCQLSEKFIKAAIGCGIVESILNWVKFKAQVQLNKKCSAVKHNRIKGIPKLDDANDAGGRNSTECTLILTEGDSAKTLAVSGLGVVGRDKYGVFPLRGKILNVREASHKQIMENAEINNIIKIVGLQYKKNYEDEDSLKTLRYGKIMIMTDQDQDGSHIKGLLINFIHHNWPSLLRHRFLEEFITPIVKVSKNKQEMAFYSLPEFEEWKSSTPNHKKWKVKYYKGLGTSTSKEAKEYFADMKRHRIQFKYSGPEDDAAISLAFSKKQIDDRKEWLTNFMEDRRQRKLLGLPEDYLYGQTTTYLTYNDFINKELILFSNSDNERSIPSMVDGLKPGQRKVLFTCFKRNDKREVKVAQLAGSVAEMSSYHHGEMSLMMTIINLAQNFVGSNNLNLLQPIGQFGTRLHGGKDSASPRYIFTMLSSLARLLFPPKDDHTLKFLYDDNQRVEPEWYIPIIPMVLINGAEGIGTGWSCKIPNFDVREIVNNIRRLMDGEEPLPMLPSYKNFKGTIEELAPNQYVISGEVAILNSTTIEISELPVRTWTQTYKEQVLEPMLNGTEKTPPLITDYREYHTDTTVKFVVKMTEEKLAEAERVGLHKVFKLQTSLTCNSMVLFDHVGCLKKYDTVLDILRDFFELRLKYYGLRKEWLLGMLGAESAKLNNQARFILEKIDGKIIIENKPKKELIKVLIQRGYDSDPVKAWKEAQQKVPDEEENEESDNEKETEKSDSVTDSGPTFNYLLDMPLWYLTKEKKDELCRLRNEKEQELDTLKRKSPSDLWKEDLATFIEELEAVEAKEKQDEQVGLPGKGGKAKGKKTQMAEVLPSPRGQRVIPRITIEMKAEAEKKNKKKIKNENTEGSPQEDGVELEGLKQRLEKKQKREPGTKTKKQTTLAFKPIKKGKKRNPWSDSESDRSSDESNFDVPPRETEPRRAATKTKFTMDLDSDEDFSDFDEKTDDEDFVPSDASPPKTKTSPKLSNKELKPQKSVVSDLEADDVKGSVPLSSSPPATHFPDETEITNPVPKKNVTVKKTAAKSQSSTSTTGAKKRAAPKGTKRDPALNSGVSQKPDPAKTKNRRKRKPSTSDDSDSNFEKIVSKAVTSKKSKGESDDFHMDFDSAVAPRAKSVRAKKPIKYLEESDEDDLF
EXPERIMENT DESCRIPTION: Inhibition of topoisomerase 2alpha in human SW620 organoids transfected with VimPro-GFP reporter assessed as reversion of epithelial-mesenchymal transition by measuring reduction in vimentin expression after 72 hrs by Hoechst 33342 staining based GFP reporter gene assay
QUANTITY MEASURED: EC50 (nM)

compound_smiles=COc1cc(NC(C)=O)c(O)c2nccc(-c3ccccc3NC(=O)c3ccccc3)c12 test_value=4000
compound_smiles=CC(=O)Nc1ccc2c(-c3cc4ccccc4o3)ccnc2c1O test_value=3500
compound_smiles=O=C(CN1CCOCC1)Nc1ccc2c(-c3cc4ccccc4o3)ccnc2c1O test_value=1000
compound_smiles=O=C(CCN1CCOCC1)Nc1ccc2c(-c3cc4ccccc4o3)ccnc2c1O test_value=2400
compound_smiles=CC(=O)Nc1ccc2c(-c3cccs3)ccnc2c1O test_value=1200
compound_smiles=CC(=O)Nc1ccc2c(-c3ccoc3)ccnc2c1O test_value=1700
compound_smiles=CC(=O)Nc1ccc(-c2ccnc3c(O)c(NC(C)=O)ccc23)cc1 test_value=9500
compound_smiles=CC(C)(C)C(=O)Nc1ccc2c(-c3ccccc3)ccnc2c1O test_value=4700
compound_smiles=O=C(CCN1CCOCC1)Nc1ccc2c(-c3cc(F)ccc3O)ccnc2c1O test_value=1900
compound_smiles=CC(=O)Nc1ccc2c(-c3cc(F)ccc3O)ccnc2c1O test_value=1200
